Measured values drawn from ChEMBL document CHEMBL1201862 for this set.

# experimental_target: Protein skinhead-1 (Caenorhabditis elegans, UniProt P34707)
# Sequence (P34707 whole entry): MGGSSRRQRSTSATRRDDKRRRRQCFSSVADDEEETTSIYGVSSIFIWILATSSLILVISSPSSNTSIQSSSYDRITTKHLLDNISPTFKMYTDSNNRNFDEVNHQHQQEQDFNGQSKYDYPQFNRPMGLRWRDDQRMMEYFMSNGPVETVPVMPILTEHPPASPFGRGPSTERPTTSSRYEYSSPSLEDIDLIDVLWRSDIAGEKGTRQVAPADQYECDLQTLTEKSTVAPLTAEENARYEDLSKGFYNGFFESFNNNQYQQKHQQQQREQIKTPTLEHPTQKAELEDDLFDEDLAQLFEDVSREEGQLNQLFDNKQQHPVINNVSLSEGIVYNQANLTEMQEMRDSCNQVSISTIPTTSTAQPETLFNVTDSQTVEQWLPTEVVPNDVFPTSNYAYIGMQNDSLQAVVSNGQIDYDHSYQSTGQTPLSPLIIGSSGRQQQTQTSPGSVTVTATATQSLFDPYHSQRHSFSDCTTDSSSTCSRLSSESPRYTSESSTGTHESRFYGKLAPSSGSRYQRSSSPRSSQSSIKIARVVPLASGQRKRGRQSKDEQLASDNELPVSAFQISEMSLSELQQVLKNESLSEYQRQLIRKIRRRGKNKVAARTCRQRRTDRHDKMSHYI
# Type: functional
Active and inactive are the calls of the source.
Exercise: state measured IC50 for each of the compounds provided.

Ask: # IC50 lookup, item `Clc1ccc(Nc2ncnc3ccc(Br)cc23)cc1`
Reply: > 100 µM (inactive)

Ask: # IC50 lookup, item `Nc1nc(-c2ccc(-c3ccccc3)cc2)cs1`
Reply: > 100 µM (inactive)

Ask: # IC50 lookup, item `COc1ccccc1C(=O)Nc1ccc(Br)cc1C`
Reply: > 100 µM (inactive)

Ask: # IC50 lookup, item `CC/C(=C\c1ccc(N(C)C)cc1)c1ccncc1`
Reply: > 100 µM (inactive)

Ask: # IC50 lookup, item `CCOc1cc(NC(=O)c2ccco2)c(OCC)cc1NC(=O)CCc1ccccc1OC`
Reply: > 100 µM (inactive)

Ask: # IC50 lookup, item `Cn1nc(C(=O)N2CCN(S(=O)(=O)c3ccccc3)CC2)c2ccccc2c1=O`
Reply: > 100 µM (inactive)

Ask: # IC50 lookup, item CCN(CC(=O)Nc1ccccc1C(F)(F)F)C(=O)C1CC(=O)N(Cc2ccccc2)C1 (stereo not given)
Reply: > 100 µM (inactive)

Ask: # IC50 lookup, item `C#CCSc1ncc(-c2ccccc2)cn1`
Reply: 15.3 µM (active)

Ask: # IC50 lookup, item `Cc1ccccc1CNC(=O)c1ccc2sc([C@H]3C[C@H](O)[C@@H](CO)O3)nc2c1`
Reply: > 100 µM (inactive)

Ask: # IC50 lookup, item `O=C(/C=C\c1ccco1)Nc1nc(-c2ccc3ccccc3c2)cs1`
Reply: > 100 µM (inactive)

Ask: # IC50 lookup, item CCCC(C(=O)NCC1CCCO1)N(Cc1ccccc1)C(=O)CNS(=O)(=O)c1ccccc1 (stereo not given)
Reply: > 100 µM (inactive)

Ask: # IC50 lookup, item CC1(c2ccc(Cl)cc2)NC(=O)N(CN2CCOCC2)C1=O (stereo not given)
Reply: > 100 µM (inactive)

Ask: # IC50 lookup, item `Cc1ccc2cc3c(NC(=O)c4cccnc4)nn(C)c3nc2c1`
Reply: > 100 µM (inactive)

Ask: # IC50 lookup, item `Nc1nc(-c2ccc(Oc3ccccc3)cc2)cs1`
Reply: 98.1 µM (inactive)

Ask: # IC50 lookup, item `O=C(CSc1nc2ccccc2o1)c1ccc2c(c1)OCCO2`
Reply: > 100 µM (inactive)

Ask: # IC50 lookup, item `O=[N+]([O-])c1ccc2cn(-c3ccccc3)nc2c1`
Reply: 54.4 µM (inactive)

Ask: # IC50 lookup, item COc1ccc2c(c1OC)C(=O)OC2Nc1nc(-c2ccc(-c3ccccc3)cc2)cs1 (stereo not given)
Reply: 18.7 µM (active)

Ask: # IC50 lookup, item `Cc1cc2ccccc2n1CCNC(=O)c1ccc(S(=O)(=O)N2CCOCC2)cc1`
Reply: > 100 µM (inactive)

Ask: # IC50 lookup, item `Brc1ccc(-c2cnc(-c3cccs3)o2)cc1`
Reply: 19.7 µM (active)

Ask: # IC50 lookup, item `O=C(C=Cc1ccccc1)c1cc(Br)ccc1O`
Reply: > 100 µM (inactive)

---

# experimental_target: Cysteine protease ATG4B (Homo sapiens, UniProt Q9Y4P1);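 further: Fluorescence-based dose-response confirmation assay measuring inhibition of ATG4B activity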
# Sequence (Q9Y4P1 whole entry): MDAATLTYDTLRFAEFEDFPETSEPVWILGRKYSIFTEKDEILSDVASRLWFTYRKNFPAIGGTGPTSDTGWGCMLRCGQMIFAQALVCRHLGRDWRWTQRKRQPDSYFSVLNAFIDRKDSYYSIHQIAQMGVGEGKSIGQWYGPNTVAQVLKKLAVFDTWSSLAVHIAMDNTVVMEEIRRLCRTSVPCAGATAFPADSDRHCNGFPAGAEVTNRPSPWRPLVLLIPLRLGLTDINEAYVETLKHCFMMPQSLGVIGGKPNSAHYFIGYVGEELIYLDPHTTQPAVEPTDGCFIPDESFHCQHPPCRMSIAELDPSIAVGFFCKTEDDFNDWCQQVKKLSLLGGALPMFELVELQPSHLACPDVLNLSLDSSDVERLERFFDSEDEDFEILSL
# Type: functional
Calls of active or inactive are those of the source.
result_type: IC50

Ask: Give recorded IC50 with Cysteine protease ATG4B (Homo sapiens, UniProt Q9Y4P1) for the following compound: COc1cc2c(cc1NC(=O)C(C)Sc1ccc(NC(C)=O)cc1)oc1ccccc12 (stereo not drawn)
Reply: 14.7 µM (active)

Ask: Give recorded IC50 with Cysteine protease ATG4B (Homo sapiens, UniProt Q9Y4P1) for the following compound: `COC(=O)N/N=C/c1cn(CCCOc2ccc(C)cc2)c2ccccc12`
Reply: 10.3 µM (active)

Ask: Give recorded IC50 with Cysteine protease ATG4B (Homo sapiens, UniProt Q9Y4P1) for the following compound: CC(C)(C)c1ccc(C(=O)C2CCCN(C(=O)c3ccccn3)C2)cc1 (stereo not drawn)
Reply: 15.1 µM (active)

Ask: Give recorded IC50 with Cysteine protease ATG4B (Homo sapiens, UniProt Q9Y4P1) for the following compound: COc1ccc2c(c1OC)C(=O)OC2Nc1nc(-c2ccc(-c3ccccc3)cc2)cs1 (stereo not drawn)
Reply: 8.28 µM (active)

Ask: Give recorded IC50 with Cysteine protease ATG4B (Homo sapiens, UniProt Q9Y4P1) for the following compound: `Cc1cccc(NC(S)=NNC(=O)c2csc3c2CCCC3)c1`
Reply: 11.2 µM (active)

Ask: Give recorded IC50 with Cysteine protease ATG4B (Homo sapiens, UniProt Q9Y4P1) for the following compound: `O=C(c1ccc(-n2c(SCc3cccc(F)c3)nc3ccccc3c2=O)cc1)N1CCOCC1`
Reply: 10.1 µM (active)

Ask: Give recorded IC50 with Cysteine protease ATG4B (Homo sapiens, UniProt Q9Y4P1) for the following compound: Cc1ccc(-c2[nH]nc3c2C(c2ccc(OC(=O)N4CCOCC4)cc2)C(C#N)=C(N)O3)cc1 (stereo not drawn)
Reply: 15.8 µM (active)

Ask: Give recorded IC50 with Cysteine protease ATG4B (Homo sapiens, UniProt Q9Y4P1) for the following compound: `O=C(O)c1cc(Br)ccc1NN=C1CCCCC1`
Reply: 13.4 µM (active)

---

# AC50 per entry for Cytochrome P450 2C9 (Homo sapiens, UniProt P11712)

Ask: # AC50 lookup, item COc1ccc(C2C(C#N)=C(N)Oc3[nH]nc(C)c32)cc1CN1CCN(c2ccc(F)cc2)CC1 (configuration not stated)
Reply: 35.5 µM (inconclusive)

Ask: # AC50 lookup, item COc1cc2c(cc1OC)C(C(=O)Nc1ccccn1)C(c1cccnc1)N(C)C2=O (configuration not stated)
Reply: 11.2 µM (inconclusive)

Ask: # AC50 lookup, item `CC[C@H](c1ccccc1)c1cc(C(C)(C)C)cc(C(C)(C)C)c1O`
Reply: 7.94 µM (inconclusive)

Ask: # AC50 lookup, item `O=S(=O)(N=C(Nc1ccccn1)c1ccccc1)c1ccc(Cl)cc1`
Reply: 11.2 µM (inconclusive)

Ask: # AC50 lookup, item `CCN(CC)Cc1c(O)c(Cl)cc2c3c(c(=O)oc12)CCCC3`
Reply: 25.1 µM (inconclusive)

Ask: # AC50 lookup, item `N=C1/C(=N/Nc2cccc(Cl)c2)C(=O)NN1c1ccccc1`
Reply: 1.26 µM (inconclusive)

Ask: # AC50 lookup, item `CN1CCN(c2ncc3nc(-c4cccc(C#N)c4)c(=O)n(C)c3n2)CC1`
Reply: 39.8 µM (inconclusive)

Ask: # AC50 lookup, item `O=C(NN=C1c2ccccc2-c2ccccc21)c1ccccn1`
Reply: 7.08 µM (inconclusive)

Ask: # AC50 lookup, item Cc1ccc(CN2CC34C=CC(O3)C(C(=O)NCc3ccc5c(c3)OCO5)C4C2=O)cc1 (configuration not stated)
Reply: 12.6 µM (inconclusive)

Ask: # AC50 lookup, item `Cc1nc2cncnc2n(-c2ccccc2)c1=O`
Reply: 39.8 µM (inconclusive)

Ask: # AC50 lookup, item `COc1ccc(C(=O)Nc2ccc(S(=O)(=O)N3CCOCC3)cc2)cc1OC`
Reply: 28.2 µM (inconclusive)

Ask: # AC50 lookup, item `CCCCN(Cc1ccccc1)C(=O)c1cnc2n(c1=O)CCS2`
Reply: 8.91 µM (inconclusive)

Ask: # AC50 lookup, item `O=C(NCCNS(=O)(=O)c1ccccc1Cl)c1cc(OCC(F)(F)F)ccc1OCC(F)(F)F`
Reply: 12.6 µM (inconclusive)

Ask: # AC50 lookup, item `O=c1c(-c2ccc(F)cc2)nc2cnc(N3CCNCC3)nc2n1Cc1ccc(F)cc1`
Reply: 31.6 µM (inconclusive)

Ask: # AC50 lookup, item CC(=O)N(NC(=O)c1ccccc1Cl)C1CC(=O)N(c2ccc(C)cc2)C1=O (configuration not stated)
Reply: 14.1 µM (inconclusive)

Ask: # AC50 lookup, item `CC1CCN(C(=S)c2ccc(O)cc2)CC1`
Reply: 39.8 µM (inconclusive)

Ask: # AC50 lookup, item `CC1=CC(C)(C)N=C(S)N1c1cccc(C)c1`
Reply: 3.55 µM (inconclusive)

Ask: # AC50 lookup, item COC(=O)CNC(=O)CN1C(=O)N(c2ccccc2)C(N(O)C(=O)Nc2ccccc2)C1(C)C (configuration not stated)
Reply: 10 µM (inconclusive)

Ask: # AC50 lookup, item `Cn1cccc1C(=O)N1CCC[C@@]2(CCN(Cc3nccs3)C2)C1`
Reply: 31.6 µM (inconclusive)

Ask: # AC50 lookup, item `CSc1nnc(-c2sc(-c3ccccc3)nc2C)n1C`
Reply: 0.0708 µM (inconclusive)

Ask: # AC50 lookup, item `COc1ccc(/C=N/NC(N)=S)cc1OC(=O)c1cccc2ccccc12`
Reply: 6.31 µM (inconclusive)

Ask: # AC50 lookup, item `COc1ccc(C=O)cc1COc1ccc(C)cc1[N+](=O)[O-]`
Reply: 4.47 µM (inconclusive)
